Cited source for all entries: PubChem BioAssay AID1963443

# Test system: MDA-MB-231 complex spheroids, growth inhibition
# RUN_DESCRIPTION: Anticancer human tumor MDA-MB-231 cell line growth inhibition [Asc]; active = viability on the fitted dose curve at most 10% of control; inactive = the rest;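 also: spheroids exposed to compounds for 7 days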
# CONDITION_DETAILS: second compound 3 µM; first compound 0.01 µM
Possible outcomes: active, inactive

| COMPOUND | TESTED_ON | CLASSIFICATION |
| --- | --- | --- |
| CNC(C)C(=O)NC1CN(S(=O)(=O)c2cccc(S(=O)(=O)N3CCC4CCC(C(=O)NC(c5ccccc5)c5ccccc5)N4C(=O)C(NC(=O)C(C)NC)C3)c2)CCC2CCC(C(=O)NC(c3ccccc3)c3ccccc3)N2C1=O (stereo unspecified) + CCN1C(C(=O)NC23CCC(C(=O)O)(CC2)CC3)C(c2cccc(Cl)c2F)C2(C(=O)Nc3cc(Cl)ccc32)C12CCCCC2 | MDA-MB-231 complex spheroids, growth inhibition | active |
| NC1CCC(NC2CC2c2ccccc2)CC1 (stereo unspecified) + CCN1C(C(=O)NC23CCC(C(=O)O)(CC2)CC3)C(c2cccc(Cl)c2F)C2(C(=O)Nc3cc(Cl)ccc32)C12CCCCC2 | MDA-MB-231 complex spheroids, growth inhibition | inactive |
| COc1c(OCCCN2CCOCC2)ccc2c3n(c(=NC(=O)c4cnc(N)nc4)nc12)CCN3 + CCN1C(C(=O)NC23CCC(C(=O)O)(CC2)CC3)C(c2cccc(Cl)c2F)C2(C(=O)Nc3cc(Cl)ccc32)C12CCCCC2 | MDA-MB-231 complex spheroids, growth inhibition | inactive |
| CCN1CCN(Cc2ccc(Nc3ncc(F)c(-c4cc(F)c5nc(C)n(C(C)C)c5c4)n3)nc2)CC1 + CCN1C(C(=O)NC23CCC(C(=O)O)(CC2)CC3)C(c2cccc(Cl)c2F)C2(C(=O)Nc3cc(Cl)ccc32)C12CCCCC2 | MDA-MB-231 complex spheroids, growth inhibition | inactive |
| O=C(c1ccc(F)c(F)c1Nc1ccc(I)cc1F)N1CC(O)([C@@H]2CCCCN2)C1 + CCN1C(C(=O)NC23CCC(C(=O)O)(CC2)CC3)C(c2cccc(Cl)c2F)C2(C(=O)Nc3cc(Cl)ccc32)C12CCCCC2 | MDA-MB-231 complex spheroids, growth inhibition | inactive |
| Cn1ncnc1[C@H]1c2n[nH]c(=O)c3cc(F)cc(c23)N[C@@H]1c1ccc(F)cc1 + CCN1C(C(=O)NC23CCC(C(=O)O)(CC2)CC3)C(c2cccc(Cl)c2F)C2(C(=O)Nc3cc(Cl)ccc32)C12CCCCC2 | MDA-MB-231 complex spheroids, growth inhibition | inactive |

---

# Tested on: MDA-MB-231 complex spheroids, growth inhibition
# RUN_DESCRIPTION: Anticancer human tumor MDA-MB-231 cell line growth inhibition [Asc];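 also: spheroids exposed to compounds for 7 days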
# CONDITION_DETAILS: second compound 0.0949 µM; first compound 0.0316 µM; stronger effect = lower value
# viability, T/C per record follows

| MOLECULE | viability, T/C (%) |
| --- | --- |
| Cn1ncnc1[C@H]1c2n[nH]c(=O)c3cc(F)cc(c23)N[C@@H]1c1ccc(F)cc1 + CCN1C(C(=O)NC23CCC(C(=O)O)(CC2)CC3)C(c2cccc(Cl)c2F)C2(C(=O)Nc3cc(Cl)ccc32)C12CCCCC2 | 90.2 |
| C=C(F)C(=O)N1CCN(c2nc(OCC3CCCN3C)nc3c2CCN(c2cccc4cccc(Cl)c24)C3)CC1CC#N (stereo not given) + CCN1C(C(=O)NC23CCC(C(=O)O)(CC2)CC3)C(c2cccc(Cl)c2F)C2(C(=O)Nc3cc(Cl)ccc32)C12CCCCC2 | 100 |
| NC1CCC(NC2CC2c2ccccc2)CC1 (stereo not given) + CCN1C(C(=O)NC23CCC(C(=O)O)(CC2)CC3)C(c2cccc(Cl)c2F)C2(C(=O)Nc3cc(Cl)ccc32)C12CCCCC2 | 100 |
| CCN1CCN(Cc2ccc(Nc3ncc(F)c(-c4cc(F)c5nc(C)n(C(C)C)c5c4)n3)nc2)CC1 + CCN1C(C(=O)NC23CCC(C(=O)O)(CC2)CC3)C(c2cccc(Cl)c2F)C2(C(=O)Nc3cc(Cl)ccc32)C12CCCCC2 | 79.7 |
| O=C(c1cc(Cc2n[nH]c(=O)c3ccccc23)ccc1F)N1CCN(C(=O)C2CC2)CC1 + CCN1C(C(=O)NC23CCC(C(=O)O)(CC2)CC3)C(c2cccc(Cl)c2F)C2(C(=O)Nc3cc(Cl)ccc32)C12CCCCC2 | 106 |
| C#Cc1c(F)ccc2cc(O)cc(-c3ncc4c(N5CC6CCC(C5)N6)nc(OCC56CCCN5CC(F)C6)nc4c3F)c12 (stereo not given) + CCN1C(C(=O)NC23CCC(C(=O)O)(CC2)CC3)C(c2cccc(Cl)c2F)C2(C(=O)Nc3cc(Cl)ccc32)C12CCCCC2 | 108 |
| O=C(c1ccc(F)c(F)c1Nc1ccc(I)cc1F)N1CC(O)([C@@H]2CCCCN2)C1 + CCN1C(C(=O)NC23CCC(C(=O)O)(CC2)CC3)C(c2cccc(Cl)c2F)C2(C(=O)Nc3cc(Cl)ccc32)C12CCCCC2 | 54.1 |
| C=CC(=O)N1CCN(c2nc(=O)n(-c3c(C)ccnc3C(C)C)c3nc(-c4c(O)cccc4F)c(F)cc23)C(C)C1 (stereo not given) + CCN1C(C(=O)NC23CCC(C(=O)O)(CC2)CC3)C(c2cccc(Cl)c2F)C2(C(=O)Nc3cc(Cl)ccc32)C12CCCCC2 | 108 |
| CNC(C)C(=O)NC1CN(S(=O)(=O)c2cccc(S(=O)(=O)N3CCC4CCC(C(=O)NC(c5ccccc5)c5ccccc5)N4C(=O)C(NC(=O)C(C)NC)C3)c2)CCC2CCC(C(=O)NC(c3ccccc3)c3ccccc3)N2C1=O (stereo not given) + CCN1C(C(=O)NC23CCC(C(=O)O)(CC2)CC3)C(c2cccc(Cl)c2F)C2(C(=O)Nc3cc(Cl)ccc32)C12CCCCC2 | 1.66 |
| COc1c(OCCCN2CCOCC2)ccc2c3n(c(=NC(=O)c4cnc(N)nc4)nc12)CCN3 + CCN1C(C(=O)NC23CCC(C(=O)O)(CC2)CC3)C(c2cccc(Cl)c2F)C2(C(=O)Nc3cc(Cl)ccc32)C12CCCCC2 | 63.4 |

---

# Test system: MDA-MB-231 complex spheroids, growth inhibition
# RUN_DESCRIPTION: Anticancer human tumor MDA-MB-231 cell line growth inhibition [Asc]; active = viability on the fitted dose curve at most 10% of control; inactive = the rest;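 also: spheroids exposed to compounds for 7 days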
# CONDITION_DETAILS: second compound 0.3 µM; first compound 0.01 µM
# Source text: Multicellular complex tumor spheroid response to apoptosis pathway targeting inhibitors Alrizomadlin, Pelcitoclax, and Dasminapant in combination with a variety of drugs and investigational agents in selected tumor cell lines […] Compounds. […] If the clinical Cmax for an agent had not been determined, the highest concentration tested was 10 microM. […]
Possible outcomes: label 1 = active, label 0 = inactive

| COMPOUND | CLASSIFICATION |
| --- | --- |
| CCN1CCN(Cc2ccc(Nc3ncc(F)c(-c4cc(F)c5nc(C)n(C(C)C)c5c4)n3)nc2)CC1 + CCN1C(C(=O)NC23CCC(C(=O)O)(CC2)CC3)C(c2cccc(Cl)c2F)C2(C(=O)Nc3cc(Cl)ccc32)C12CCCCC2 | label 0 |
| Cn1ncnc1[C@H]1c2n[nH]c(=O)c3cc(F)cc(c23)N[C@@H]1c1ccc(F)cc1 + CCN1C(C(=O)NC23CCC(C(=O)O)(CC2)CC3)C(c2cccc(Cl)c2F)C2(C(=O)Nc3cc(Cl)ccc32)C12CCCCC2 | label 0 |
| NC1CCC(NC2CC2c2ccccc2)CC1 (stereo unspecified) + CCN1C(C(=O)NC23CCC(C(=O)O)(CC2)CC3)C(c2cccc(Cl)c2F)C2(C(=O)Nc3cc(Cl)ccc32)C12CCCCC2 | label 0 |
| O=C(c1ccc(F)c(F)c1Nc1ccc(I)cc1F)N1CC(O)([C@@H]2CCCCN2)C1 + CCN1C(C(=O)NC23CCC(C(=O)O)(CC2)CC3)C(c2cccc(Cl)c2F)C2(C(=O)Nc3cc(Cl)ccc32)C12CCCCC2 | label 0 |
| COc1c(OCCCN2CCOCC2)ccc2c3n(c(=NC(=O)c4cnc(N)nc4)nc12)CCN3 + CCN1C(C(=O)NC23CCC(C(=O)O)(CC2)CC3)C(c2cccc(Cl)c2F)C2(C(=O)Nc3cc(Cl)ccc32)C12CCCCC2 | label 0 |
| CNC(C)C(=O)NC1CN(S(=O)(=O)c2cccc(S(=O)(=O)N3CCC4CCC(C(=O)NC(c5ccccc5)c5ccccc5)N4C(=O)C(NC(=O)C(C)NC)C3)c2)CCC2CCC(C(=O)NC(c3ccccc3)c3ccccc3)N2C1=O (stereo unspecified) + CCN1C(C(=O)NC23CCC(C(=O)O)(CC2)CC3)C(c2cccc(Cl)c2F)C2(C(=O)Nc3cc(Cl)ccc32)C12CCCCC2 | label 1 |

---

# viability, T/C per record follows
# Test system: MDA-MB-231 complex spheroids, growth inhibition
# RUN_DESCRIPTION: Anticancer human tumor MDA-MB-231 cell line growth inhibition [Asc];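 also: spheroids exposed to compounds for 7 days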
# CONDITION_DETAILS: second compound 0.03 µM; first compound 0.0316 µM; stronger effect = lower value

| COMPOUND | viability, T/C, % |
| --- | --- |
| O=C(c1ccc(F)c(F)c1Nc1ccc(I)cc1F)N1CC(O)([C@@H]2CCCCN2)C1 + CCN1C(C(=O)NC23CCC(C(=O)O)(CC2)CC3)C(c2cccc(Cl)c2F)C2(C(=O)Nc3cc(Cl)ccc32)C12CCCCC2 | 53.4 |
| C#Cc1c(F)ccc2cc(O)cc(-c3ncc4c(N5CC6CCC(C5)N6)nc(OCC56CCCN5CC(F)C6)nc4c3F)c12 (stereo not drawn) + CCN1C(C(=O)NC23CCC(C(=O)O)(CC2)CC3)C(c2cccc(Cl)c2F)C2(C(=O)Nc3cc(Cl)ccc32)C12CCCCC2 | 96.8 |
| NC1CCC(NC2CC2c2ccccc2)CC1 (stereo not drawn) + CCN1C(C(=O)NC23CCC(C(=O)O)(CC2)CC3)C(c2cccc(Cl)c2F)C2(C(=O)Nc3cc(Cl)ccc32)C12CCCCC2 | 91.8 |
